molecular target: Muscarinic acetylcholine receptor M4 (Homo sapiens) (UniProt P08173); test: Positive allosteric modulation of human M4 receptor expressed in CHO cells coexpressing Gqi5 assessed as increase in acetylcholine-induced calcium mobilization relative to acetylcholine; assay type: functional, cell-based
Sequence (P08173 whole entry): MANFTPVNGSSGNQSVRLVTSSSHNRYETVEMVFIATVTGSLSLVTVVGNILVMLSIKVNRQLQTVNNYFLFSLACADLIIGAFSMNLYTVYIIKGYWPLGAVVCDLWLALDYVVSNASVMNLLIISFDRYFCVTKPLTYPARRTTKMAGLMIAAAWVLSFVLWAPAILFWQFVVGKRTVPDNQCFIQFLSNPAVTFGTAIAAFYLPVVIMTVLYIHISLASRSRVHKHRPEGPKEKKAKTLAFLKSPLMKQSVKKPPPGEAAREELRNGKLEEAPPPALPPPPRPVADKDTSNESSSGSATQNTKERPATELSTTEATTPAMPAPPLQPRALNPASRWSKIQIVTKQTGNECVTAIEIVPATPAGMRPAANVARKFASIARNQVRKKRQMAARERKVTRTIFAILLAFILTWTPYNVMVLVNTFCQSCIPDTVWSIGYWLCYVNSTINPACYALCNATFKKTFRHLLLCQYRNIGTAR
Label Condition met when %max is at or above 70%; otherwise label Condition not met.

| ENTRY_SMILES | CATEGORY |
| --- | --- |
| Cc1nnc2sc(C(=O)NCc3ccc(Br)cc3)c(N)c2c1C | Condition met |
| Cc1nnc2sc(C(=O)NCc3ccc(-c4ccnc(F)c4)cc3)c(N)c2c1C | Condition met |
| Cc1nnc2sc(C(=O)NCc3cccc(Br)c3)c(N)c2c1C | Condition met |
| Cc1nnc2sc(C(=O)NCc3ccccc3-c3ccccc3)c(N)c2c1C | Condition not met |
| Cc1nnc2sc(C(=O)NCc3ccc(-c4ccccc4)cc3)c(N)c2c1C | Condition not met |
| Cc1nnc2sc(C(=O)NCc3ccc(-c4cnccn4)cc3)c(N)c2c1C | Condition not met |
| Cc1nnc2sc(C(=O)NCc3ccc(-c4ccncc4)cc3)c(N)c2c1C | Condition met |
| Cc1nnc2sc(C(=O)NCc3ccc(-c4ccnnc4)cc3)c(N)c2c1C | Condition met |

* * *

test: Oral bioavailabilty in cynomolgus monkey at 10 mg/kg; format: ADME, organism-based, Macaca fascicularis; conditions: in vivo

| ENTRY_SMILES | bioavailability / % |
| --- | --- |
| Cc1nnc2sc(C(=O)NCc3ccc(-c4cccnc4F)cc3)c(N)c2c1C.Cl | 4.7 |

* * *

target: Muscarinic acetylcholine receptor M2 (Rattus norvegicus, UniProt P10980); test: Activity at rat M2 receptor
Sequence (P10980 whole entry): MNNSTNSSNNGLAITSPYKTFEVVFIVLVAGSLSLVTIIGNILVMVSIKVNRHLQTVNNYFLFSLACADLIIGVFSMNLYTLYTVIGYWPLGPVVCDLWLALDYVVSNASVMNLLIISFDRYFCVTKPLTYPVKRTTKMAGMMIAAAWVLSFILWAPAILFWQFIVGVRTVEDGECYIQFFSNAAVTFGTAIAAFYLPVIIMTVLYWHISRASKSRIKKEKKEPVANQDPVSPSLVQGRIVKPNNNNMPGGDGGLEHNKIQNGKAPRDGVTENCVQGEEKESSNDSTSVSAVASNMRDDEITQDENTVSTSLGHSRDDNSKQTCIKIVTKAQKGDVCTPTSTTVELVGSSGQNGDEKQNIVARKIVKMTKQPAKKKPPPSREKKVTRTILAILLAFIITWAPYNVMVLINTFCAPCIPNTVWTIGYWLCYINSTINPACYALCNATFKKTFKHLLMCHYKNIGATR
pEC50: −log10 of the molar value.

| ENTRY_SMILES | pEC50 |
| --- | --- |
| Cc1nnc2sc(C(=O)NCc3ccc(-c4cccnc4F)cc3)c(N)c2c1C | < 4.52 |

* * *

bioavailability by entry:
test: Oral bioavailability in rat at 10 mg/kg; assay type: ADME, organism-based; conditions: in vivo

| ENTRY_SMILES | bioavailability |
| --- | --- |
| Cc1nnc2sc(C(=O)NCc3ccc(-c4cccnc4F)cc3)c(N)c2c1C | 61% |
| Cc1nnc2sc(C(=O)NCc3ccc(-c4cccnc4F)cc3)c(N)c2c1C.Cl | 54% |

* * *

assay: Positive allosteric modulation of dog M4 receptor assessed as increase in acetylcholine-induced calcium mobilization; set-up: species or system Canis lupus familiaris

| ENTRY_SMILES | EC50 [µM] |
| --- | --- |
| Cc1nnc2sc(C(=O)NCc3ccc(-c4cccnc4F)cc3)c(N)c2c1C | 0.111 |

* * *

experiment: Ratio of unbound CSF to plasma concentration in dog at 3 mg/kg, iv or po at 2 hrs post dose; format: ADME, organism-based, Canis lupus familiaris

| ENTRY_SMILES | Kp uu at 2 h |
| --- | --- |
| Cc1nnc2sc(C(=O)NCc3ccc(-c4cccnc4F)cc3)c(N)c2c1C | 4.8 |

* * *

biological target: Muscarinic acetylcholine receptor M4 (Homo sapiens); experiment: Positive allosteric modulation of human M4 receptor expressed in CHO cells coexpressing Gqi5 assessed as increase in acetylcholine-induced calcium mobilization relative to acetylcholine; type: functional, cell-based
The following compounds are listed with their measured %max values.
OUTCOME_MEASURE: %max (%)

| ENTRY_SMILES | MEASURED_RESULT |
| --- | --- |
| Cc1nnc2sc(C(=O)NCc3ccc(-c4ccccn4)cc3)c(N)c2c1C | 75 |
| Cc1nnc2sc(C(=O)NCc3ccc(-c4cccnc4)cc3)c(N)c2c1C | 63 |
| Cc1nnc2sc(C(=O)NCc3cccc(-c4ccccc4)c3)c(N)c2c1C | 41 |
| Cc1nnc2sc(C(=O)NCc3ccccc3Br)c(N)c2c1C | 31 |
| Cc1nnc2sc(C(=O)NCc3ccc(-c4cncc(F)c4)cc3)c(N)c2c1C | 78 |
| Cc1nnc2sc(C(=O)NCc3ccc(-c4cccnc4F)cc3)c(N)c2c1C | 74 |
| Cc1ncc(-c2ccc(CNC(=O)c3sc4nnc(C)c(C)c4c3N)cc2)cn1 | 65 |
| COc1ncc(-c2ccc(CNC(=O)c3sc4nnc(C)c(C)c4c3N)cc2)cn1 | 91 |
| Cc1nnc2sc(C(=O)NCc3ccc(-c4ccncc4F)cc3)c(N)c2c1C | 86 |
| Cc1nnc2sc(C(=O)NCc3ccc(-c4ccc(F)nc4)cc3)c(N)c2c1C | 79 |
